- Test system: Staphylococcus aureus
- condition.parameters: Concentration 20 uM; ASSAY_TEST Inhibition of Bacterial Growth; detection method Absorption (OD600); MEDIA CAMHB; plate type 384well; NBS; CORNING #3640; time 18 hr
- Description: Antibacterial activity against Staphylococcus aureus MRSA ATCC 43300 (CO-ADD:GP_020); MIC in CAMBH media, using NBS plates, by OD(600)
Results with a measured potency or affinity are listed apart.
In this section, each of the molecules is paired with its reported Inhibition.
Record the value in %, omitting the unit from your answer.

Previously resolved entries follow.
| molecule | assay.readout | experimental.value |
| --- | --- | --- |
| CC(C)(C)OC(=O)N1CCC(Cn2nc(-c3cnc4ccccc4c3)c3c(N)ncnc32)CC1 | Inhibition | 18.54 |
| CC(C)(C)c1cc(C(=O)Nc2cccnc2)cc(C(=O)Nc2cccnc2)c1 | Inhibition | 15.23 |
| CN1CCC(c2cc(-c3ccncc3)c(-c3ccc(F)cc3)[nH]2)CC1 | Inhibition | -0.65 |
| OCc1ccc(-c2cncc(Nc3cccc(Cl)c3)c2)cc1 | Inhibition | 14.66 |

Give the reported value of Inhibition for this record: `OCCc1ccc(Nc2nccc(-c3nnc4ccccn34)n2)cc1`
21.71

Give the reported value of Inhibition for this record: `COc1cccc2c(C)nc(N=C(N)N)nc12.O=C(O)C(F)(F)F.O=C(O)C(F)(F)F`
15.44

Give the reported value of Inhibition for this record: `COC(=O)c1c(NC(=O)c2cc3ccccc3oc2=O)sc2c1CCN(Cc1ccccc1)C2`
19.04

Give the reported value of Inhibition for this record: `CC(C)(C)CN1C(=O)C(c2ccccc2)(c2ccccc2)N=C1N`
17.09

Give the reported value of Inhibition for this record: `O=C(NC1CC1)c1ccc(N2CCOc3ccc(Cl)cc32)s1`
18.01

###

In this section, each of the compounds is paired with its reported Inhibition.
- System: Staphylococcus aureus
- condition.parameters: Concentration 20 uM; ASSAY_TEST Inhibition of Bacterial Growth; detection method Absorption (OD600); MEDIA CAMHB; plate type 384well; NBS; CORNING #3640; time 18 hr
Entries with a potency or affinity are not part of this list.
Quote the value and follow it with the unit of measurement.

Give the reported value of Inhibition for this record: `Nc1nccc2ccc(-c3ccc4nccn4c3)cc12`
24.43%

###

In this section, each of the compounds is paired with its reported Inhibition.
- System: Escherichia coli
- condition.parameters: Concentration 20 uM; ASSAY_TEST Inhibition of Bacterial Growth; detection method Absorption (OD600); MEDIA CAMHB; plate type 384well; NBS; CORNING #3640; time 18 hr
- Description: Antibacterial activity against Escherichia coli ATCC 25922 (CO-ADD:GN_001); MIC in CAMBH media using NBS plates, by OD(600)
Potency and affinity values are given separately.
Record the value in %, omitting the unit from your answer.

| compound | Inhibition [%] |
| --- | --- |
| Cc1ccc2[nH]c3c(NCCN(C)C)ncnc3c2c1 | 7.48 |

# assay system Escherichia coli: give Inhibition of `CCOc1ccc(OCC(=O)Nc2cc(C)cc(C)c2)cc1`
3.81

# assay system Escherichia coli: give Inhibition of `O=C(Nc1nc(-c2ccccn2)cs1)c1cncn1-c1ccccc1`
5.73

# assay system Escherichia coli: give Inhibition of `COc1cccn2c(C(=O)N3CCCCC3)c(C(F)(F)F)nc12`
-2.18

# assay system Escherichia coli: give Inhibition of Cc1ccc(NC(=O)CC2COc3ccccc3O2)cc1Cl (configuration not stated)
6.03

# assay system Escherichia coli: give Inhibition of `Cc1c[nH]c(CCNC(=O)c2cc(-c3ccc(Cl)cc3)cs2)n1`
10.78

# assay system Escherichia coli: give Inhibition of CC1CCCN(C(=O)C(C)Nc2cc(Cl)ccc2N2CCOCC2)C1 (configuration not stated)
9.44

# assay system Escherichia coli: give Inhibition of `CC(C)(C)OC(=O)N1CCN(c2cc(-c3ccc(Oc4ccccc4)cc3)n[nH]2)CC1`
7.28

# assay system Escherichia coli: give Inhibition of `CNC(=O)c1cc(S(=O)(=O)N2CCN(c3ccccn3)CC2)cs1`
-1.66

# assay system Escherichia coli: give Inhibition of Cl.NCCCC(N)(C(=O)O)C(F)F.O (configuration not stated) [EFLORNITHINE HYDROCHLORIDE]
-2.06

# assay system Escherichia coli: give Inhibition of `Cc1ccc(NC(=O)c2nc[nH]c2C(=O)Nc2nc3ccccc3[nH]2)c(C)c1`
12.12

# assay system Escherichia coli: give Inhibition of `O=C(NCCc1ccccc1)c1cc(-c2cccnc2)cnc1NCC1CC1`
1.84

# assay system Escherichia coli: give Inhibition of `Cc1ccc(-c2nc(CN(Cc3ccccn3)C(C)C)cs2)o1`
8.22

# assay system Escherichia coli: give Inhibition of `COc1cccc2c(C)nc(N=C(N)N)nc12.O=C(O)C(F)(F)F.O=C(O)C(F)(F)F`
7.95

# assay system Escherichia coli: give Inhibition of `CCCS(=O)(=O)N1CCC(CO)(Cc2ccccc2C(F)(F)F)CC1`
-1.16

# assay system Escherichia coli: give Inhibition of `Cc1nc(-c2cccc(NCc3ccccc3)c2)[nH]c1C`
6.38

# assay system Escherichia coli: give Inhibition of `COc1ccc(-c2nn(C(C)C)c3ncnc(N)c23)cc1OC`
-0.52

# assay system Escherichia coli: give Inhibition of CCc1nc2ccc(Cl)cn2c1C(=O)NCc1ccc(N2CCC(c3ccc(OC(F)(F)F)cc3)CC2)cc1 [TELACEBEC]
13.17

# assay system Escherichia coli: give Inhibition of `CS(=O)(=O)c1cccc(-c2cnc3[nH]cc(-c4ccc(CCC(=O)O)cc4)c3c2)c1`
7.22

# assay system Escherichia coli: give Inhibition of `O=C(Nc1ccc(F)c(-c2nc3cc(-c4ccccc4)cnc3[nH]2)c1)N1CCCC1`
-0.3

# assay system Escherichia coli: give Inhibition of `c1ccc(Oc2ccc(-c3cc(CN4CCOCC4)[nH]n3)cc2)cc1`
2.47

# assay system Escherichia coli: give Inhibition of `O=C(Nc1nnc(S)s1)c1cc(Br)ccc1Cl`
4.27

Origin of values: ChEMBL document CHEMBL4513149
